- System: SUM149PT spheroids with HUVEC/MSC, viability
- procedure.text: Anticancer human tumor SUM149PT cell line growth inhibition [GQUAD];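 note: spheroids exposed to drugs for seven days before readout; percent viability relative to DMSO vehicle control taken as 100%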
- measurement.parameters: second compound 0.316 µM; first compound 0.1 µM; stronger effect = lower value
Threshold check on viability, T/C: strictly below 80% is 1.0; on or above 80% is 0.0.

{"molecule": "Cc1cccc(N(C)C(=O)C2C(O)CCN2c2nc(C)cc(C(F)(F)F)c2C#N)c1 (stereo not given) + Cc1cnc(CNC(=O)c2c(=O)c3ccc(N4CCCN(C)CC4)nc3n3c2sc2ccccc23)cn1", "assigned.label": 1.0}
{"molecule": "Nc1ccn(C2OC(CO)C(O)C2(F)F)c(=O)n1 (stereo not given) + Cc1[nH]c2ccc(F)cc2c1-c1nc2c3cccnc3c3ncccc3c2[nH]1", "assigned.label": 1.0}
{"molecule": "O=c1[nH]cc(F)c(=O)[nH]1 + CN(C)c1ccc(Nc2c3ccc(NC(=O)CCN4CCCC4)cc3nc3cc(NC(=O)CCN4CCCC4)ccc23)cc1", "assigned.label": 0.0}
{"molecule": "C#Cc1c(F)ccc2cc(O)cc(-c3ncc4c(N5CC6CCC(C5)N6)nc(OCC56CCCN5CC(F)C6)nc4c3F)c12 (stereo not given) + CN(C)c1ccc(Nc2c3ccc(NC(=O)CCN4CCCC4)cc3nc3cc(NC(=O)CCN4CCCC4)ccc23)cc1", "assigned.label": 0.0}

Attention now shifts to the item below.
Report whether reported viability, T/C is lower than 80% (strictly) for CCCS(=O)(=O)Nc1ccc(F)c(C(=O)c2c[nH]c3ncc(-c4ccc(Cl)cc4)cc23)c1F + CN(C)c1ccc(Nc2c3ccc(NC(=O)CCN4CCCC4)cc3nc3cc(NC(=O)CCN4CCCC4)ccc23)cc1
0.0
